# Test system: Piglets
# CONDITIONS: pig, in vivo
Recorded Fecal scores: average fecal score (pen-level) values for a group of compounds are listed next.
Lab note: record just the number, no unit beside it.

See these solved cases before continuing.
CN/C(=N/CCSCc1nc[nH]c1C)NC#N ... 0.0
COc1ccc2c(c1)c(CC(=O)O)c(C)n2C(=O)c1ccc(Cl)cc1 ... 0.0
C[C@H]1c2cccc(O)c2C(=O)C2=C(O)[C@]3(O)C(=O)C(C(N)=O)=C(O)[C@@H](N(C)C)[C@@H]3[C@@H](O)[C@@H]21 ... 0.0

Please examine the following record next.
For the record CC(C)c1c(C(=O)Nc2ccccc2)c(-c2ccccc2)c(-c2ccc(F)cc2)n1CC[C@@H](O)C[C@@H](O)CC(=O)O , what value of Fecal scores: average fecal score (pen-level) is listed for Piglets?
0.5
